src = ChEMBL document CHEMBL1138883

test system: PC-3; experiment: Cytotoxicity against PC3 cells by SRB assay after 48 hrs; format: functional; conditions: Homo sapiens, PC-3, 48 h
Would you mind telling me the reported GI50 of each entry?
Hi! Could you send only the number? It should be in nM, unit omitted.

State measured GI50 of the compound "COc1cc2c(=O)c3c(NCCCN(C)CCCN4C(=O)c5cccc6cc([N+](=O)[O-])cc(c56)C4=O)ccc4c(=O)n(CCN(C)C)c(=O)n(c2cc1OC)c43" with PC-3.
17

State measured GI50 of the compound "CN(C)CCNC(=O)c1ccc(NCCNCCNCCN2C(=O)c3cccc4cccc(c34)C2=O)c2c(O)c3cc([N+](=O)[O-])ccc3nc12" with PC-3.
62

State measured GI50 of the compound "CN(C)CCCNC(=O)c1ccc(NCCCN(C)CCCN2C(=O)c3cccc4cccc(c34)C2=O)c2c(O)c3ccccc3nc12" with PC-3.
600

State measured GI50 of the compound CN(C)CCN1C(=O)c2cccc3cc([N+](=O)[O-])cc(c23)C1=O [MITONAFIDE] with PC-3.
150

State measured GI50 of the compound "CN(C)CCNC(=O)c1ccc(NCCCN(C)CCCN2C(=O)c3cccc4cc([N+](=O)[O-])cc(c34)C2=O)c2c(O)c3cc([N+](=O)[O-])ccc3nc12" with PC-3.
8

State measured GI50 of the compound "COc1ccc2nc3c(C(=O)NCCN(C)C)ccc(NCCCN(C)CCCN4C(=O)c5cccc6cccc(c56)C4=O)c3c(O)c2c1.Cl" with PC-3.
0.16

State measured GI50 of the compound "CN(C)CCNC(=O)c1ccc(NCCCN(C)CCCNc2ccc3c(=O)n(CCN(C)C)c(=O)n4c5ccccc5c(=O)c2c34)c2c(O)c3cc([N+](=O)[O-])ccc3nc12.Cl" with PC-3.
7

====

Would you mind telling me the reported GI50 of each entry?
system: PC-3; assay: Cytotoxicity against PC3 cells by SRB assay after 48 hrs; type: functional; conditions: Homo sapiens, PC-3, 48 h
Hi! Could you send only the number? It should be in nM, unit omitted.

State its GI50: "CN(C)CCCNC(=O)c1ccc(NCCCN(C)CCCNc2ccc3c(=O)n(CCCN(C)C)c(=O)n4c5ccccc5c(=O)c2c34)c2c(O)c3ccccc3nc12"
250

State its GI50: "COc1ccc2c(c1)c(=O)c1c(NCCCN(C)CCCN3C(=O)c4cccc5cccc(c45)C3=O)ccc3c(=O)n(CCN(C)C)c(=O)n2c31"
51

State its GI50: "COc1ccc2c(c1)c(=O)c1c(NCCCN(C)CCCN3C(=O)c4cccc5cc([N+](=O)[O-])cc(c45)C3=O)ccc3c(=O)n(CCN(C)C)c(=O)n2c31"
83

State its GI50: "Cc1ccc2c(c1)c(=O)c1c(NCCCN(C)CCCN3C(=O)c4cccc5cccc(c45)C3=O)ccc3nnn2c31.Cl"
17

State its GI50: "CN(C)CCCNC(=O)c1ccc(NCCCN(C)CCCN2C(=O)c3cccc4cc([N+](=O)[O-])cc(c34)C2=O)c2c(O)c3ccccc3nc12"
50

State its GI50: "CN(C)CCCn1c(=O)c2ccc(NCCCN(C)CCCN3C(=O)c4cccc5cccc(c45)C3=O)c3c(=O)c4ccccc4n(c1=O)c23"
420

State its GI50: "CN(C)CCNC(=O)c1ccc(NCCCN(C)CCCN2C(=O)c3cccc4cccc(c34)C2=O)c2c(O)c3cc([N+](=O)[O-])ccc3nc12"
89

State its GI50: "CN(C)CCNC(=O)c1ccc(NCCCN(C)CCCNc2ccc3c(=O)n(CCN(C)C)c(=O)n4c5ccccc5c(=O)c2c34)c2c(O)c3ccccc3nc12"
100

State its GI50: "CN(C)CCNC(=O)c1ccc(NCCCN(C)CCCN2C(=O)c3cccc4cc([N+](=O)[O-])cc(c34)C2=O)c2c(O)c3ccccc3nc12"
600

State its GI50: "CN(C)CCCn1c(=O)c2ccc(NCCCN(C)CCCN3C(=O)c4cccc5cc([N+](=O)[O-])cc(c45)C3=O)c3c(=O)c4ccccc4n(c1=O)c23"
1700

State its GI50: "CN(C)CCNC(=O)c1ccc(NCCCN(C)CCCN2C(=O)c3cccc4cccc(c34)C2=O)c2c(O)c3ccccc3nc12"
520

State its GI50: "COc1cc2nc3c(C(=O)NCCN(C)C)ccc(NCCCN(C)CCCN4C(=O)c5cccc6cccc(c56)C4=O)c3c(O)c2cc1OC"
150

====

test system: PC-3; assay: Cytotoxicity against PC3 cells by SRB assay after 48 hrs; format: functional; conditions: Homo sapiens, PC-3, 48 h
Would you mind telling me the reported TGI of each entry?
Hi! Could you send only the number? It should be in nM, unit omitted.

State its TGI: "CN(C)CCCNC(=O)c1ccc(NCCCN(C)CCCN2C(=O)c3cccc4cccc(c34)C2=O)c2c(O)c3ccccc3nc12"
990

State its TGI: "CN(C)CCNC(=O)c1ccc(NCCCN(C)CCCNc2ccc3c(=O)n(CCN(C)C)c(=O)n4c5ccccc5c(=O)c2c34)c2c(O)c3ccccc3nc12"
1000

State its TGI: "CN(C)CCNC(=O)c1ccc(NCCCN(C)CCCN2C(=O)c3cccc4cc([N+](=O)[O-])cc(c34)C2=O)c2c(O)c3ccccc3nc12"
1000
